Values were extracted from ChEMBL document CHEMBL3580602.

Tested on: EL4
EXPERIMENT: Cytotoxicity against mouse EL4 cells assessed as growth inhibition after 48 hrs by sulforhodamine B assay
Format: functional, cell-based
ASSAY_SETUP: EL4, 48 h
I'd be grateful if you could share measured IC50 for these entries.
Answer with a number only, understood to be in µM.

For reference, reported IC50 for CC1(C)C[C@@H]2OC(=O)[C@H](Cc3c[nH]c4ccccc34)N=C2[C@@]23C(=O)OC4OCC(=CC[C@@H]12)[C@H]43 (stereo not given in full) stands at 4

For reference, reported IC50 for CN(Cc1cnc2nc(N)nc(N)c2n1)c1ccc(C(=O)N[C@@H](CCC(=O)O)C(=O)O)cc1 [METHOTREXATE] stands at 5.1

For reference, reported IC50 for CC1(C)C[C@@H]2OC(=O)[C@H](Cc3ccccc3)N=C2[C@@]23C(=O)OC4OCC(=CC[C@@H]12)[C@H]43 (stereo not given in full) stands at 3.7

For reference, reported IC50 for C/C=C(/C)C(=O)O[C@H]1C(C)=C2[C@H]([C@@H]1OC(=O)CCCCCCC)[C@@](C)(OC(C)=O)C[C@H](OC(=O)CCC)[C@@]1(O)[C@H]2OC(=O)[C@@]1(C)O [THAPSIGARGIN] stands at 1.4

For reference, reported IC50 for CC(=O)O[C@H]1C(=O)[C@@]2(C)[C@H]([C@H](OC(=O)c3ccccc3)[C@]3(O)C[C@H](OC(=O)[C@H](O)[C@@H](NC(=O)c4ccccc4)c4ccccc4)C(C)=C1C3(C)C)[C@]1(OC(C)=O)CO[C@@H]1C[C@@H]2O [PACLITAXEL] stands at 1.7
